Origin of values: PubChem BioAssay (NCI)

- Test system: NCI-H460 lung
- test-protocol: NCI tumour cell line growth inhibition, 48 h
observable: TGI

In [3]: df
Out[3]:
                                   compound  test_result
0  COCCCNC(=O)C1C(=O)N(CCCOC)C(=O)/C1=N\N (stereo unspecified)     > 100 µM
1  CCN(CC)CC1CCCCN1CC(=O)N1c2ccccc2NC(=O)CC1C (stereo unspecified)     > 100 µM
2  CNC(=O)c1ccc(N2CCN(Cc3ccc4nc(C)c(=O)[nH]c4c3F)CC2)c(F)n1     > 100 µM
3  FC(F)(F)c1nc2nc(Cl)c(Cl)nc2n1CCCN1CCOCC1     > 100 µM
4  Cn1cc(C2=C(c3cn(CCCCN)c4ccccc34)C(=O)NC2=O)c2ccccc21      > 25 µM
5       COc1ccc(C(=O)/C=C/c2ccc(C)cc2)cc1OC      20.5 µM
